Data provenance: patent US10857105B2

Measured Size by item
assay name: Particle size and polydispersity index of nanoparticle compositions (Zetasizer Nano ZS)
Type: physicochemical
test settings: Table 1A; lipid:DSPC:cholesterol:PEG-DMG 50:10:38.5:1.5 mol %
readout: Size (nm)

INSERT INTO measurements (compound, measurement) VALUES
  ('CCCCCCCCC(CC)OC(=O)CCCN(CCO)CCCCCCCC(=O)OC(CCCCCCCC)CCCCCCCC (stereo not shown) [Compound 72]', 76.8),
  ('CCCCCCCCCOC(=O)CCCCCCCN(CCO)CCCCCCCC(=O)OC(CCCCCC)CCCCCCCC (stereo not shown) [Compound 32]', 105.6),
  ('CCCCCCCCCOC(=O)CCCCCCCN(CCCCCCCC(=O)OC(CCCCCCCC)CCCCCCCC)CCCNC(=S)NC [Compound 113]', 86.8),
  ('CCCCCCCCCOC(=O)CCCCCCCN(CCCCCCCC(=O)OC(CCCCCCCC)CCCCCCCC)CCOC(C)=O [Compound 9]', 68.5),
  ('CCCCCCCCC(CCCCCCCC)OC(=O)CCCCCCCN(CCO)CCCCCCCC(=O)OCC1CC1CCCCCC (stereo not shown) [Compound 28]', 99.4),
  ('CCCCCCCCCOC(=O)CCCCCCCN(CCO)CCCCCCCCCC(=O)OC(CCCCCC)CCCCCC [Compound 147]', 99.5),
  ('CCCCCCCCC(CCCCCCCC)OC(=O)CCCCCCCN(CCO)CCCC(=O)OCCCCCC [Compound 53]', 125.4);

* * *

assay name: Clinical chemistry and hematology in rat 48 h after intravenous 2 mpk dose
Type: in vivo
test settings: 48 h post dose
readout: Concentration, Lymphocytes

INSERT INTO results (compound, readout, measurement) VALUES
  ('CCCCCCCCCN(CCO)CCCCCCCC(=O)OC(CCCCCCCC)CCCCCCCC', 'Concentration, Lymphocytes', 12051),
  ('CCCCCCCCCOC(=O)CCCCCCCN(CCO)CCCCCCCOC(=O)C(CCCCCCCC)CCCCCCCC', 'Concentration, Lymphocytes', 10408.5),
  ('CCCCCC=CCC=CCCCCCCCCC(CCCCCCCCC=CCC=CCCCCC)OC(=O)CCCN(C)C (centres unmarked) [MC3, reference compound]', 'Concentration, Lymphocytes', 19976),
  ('CCCCCC/C=C\COC(=O)CCCCCCCN(CCO)CCCCCCCC(=O)OC(CCCCCCCC)CCCCCCCC', 'Concentration, Lymphocytes', 14100),
  ('CCCCCCCCCCCOC(=O)CCCCCN(CCO)CCCCCCCC(=O)OC(CCCCCCCC)CCCCCCCC', 'Concentration, Lymphocytes', 15924);

* * *

Here the recorded Size is given for each entry.
assay name: Particle size and polydispersity index of nanoparticle compositions (Zetasizer Nano ZS)
Format: physicochemical
test settings: Table 1A; lipid:DSPC:cholesterol:PEG-DMG 50:10:38.5:1.5 mol %
readout: Size (nm)

INSERT INTO measurements (compound, readout, display_unit, measurement) VALUES
  ('CCCCCCCCCOC(=O)CCCCCCCN(CCO)CCCCCCCC(=O)OC(CCCC)CCCC', 'Size', 'nm', 128.4),
  ('CCCCCCCCCOC(=O)CCCCCCCN(CCCO)CCCCCCCC(=O)OC(CCCCCCCC)CCCCCCCC', 'Size', 'nm', 101.1),
  ('CCCCCCCCCOC(=O)CCCCCCCN(CCCCCCCC(=O)OC(CCCCCCCC)CCCCCCCC)CCCNS(C)(=O)=O', 'Size', 'nm', 81.1),
  ('CCCCCCCCC(CCCCCCCC)C(=O)OCCCCCCCN(CCO)C(C)CCCCCCCCOC(=O)CCCCCCC (stereo not shown)', 'Size', 'nm', 72.7),
  ('CCCCCCCCCOC(=O)CCCCCCCN(CCCCCCCC(=O)OC(CCCCCCCC)CCCCCCCC)CCC(=O)O', 'Size', 'nm', 90.9),
  ('CCCCCCCCC(C)OC(=O)CCCN(CCO)CCCCCCCC(=O)OC(CCCCCCCC)CCCCCCCC (stereo not shown)', 'Size', 'nm', 73.7),
  ('CCCCCCCCCOC(=O)CCCCCCCN(CCCCCCCC(=O)OC(CCCCCCCC)CCCCCCCC)C1CCCCC1O (stereo not shown)', 'Size', 'nm', 80.2);

* * *

Tested on: IL-6, IP-10
assay name: Cytokine induction (IL-6, IP-10) in mice 6 hours after intravenous administration
Format: in vivo
Parameters: unit not given here
test settings: intravenous 0.5 mpk
Kind request: treat 300 as inclusive, so Cytokine induction, IP-10 at 300 or higher is 1, anything lower is -1.

INSERT INTO measurements (compound, measured_target, assigned_label) VALUES
  ('CCCCCCCCCOC(=O)CCCCCCCN(CCO)CCCCCCCC(=O)OC(CCCCCCCC)CCCCCCCC [Compound 18]', 'IL-6, IP-10', -1),
  ('CCCCCCCCCOC(=O)CCCCCCCN(CCCCCCCC(=O)OC(CCCCCCCC)CCCCCCCC)CC(O)CC (centres unmarked) [Compound 13]', 'IL-6, IP-10', -1),
  ('CCCCC/C=C\C/C=C\CCCCCCCCN(CCO)CCCCCCCC(=O)OC(CCCCCCCC)CCCCCCCC [Compound 6]', 'IL-6, IP-10', 1),
  ('CCCCCCCCC(CCCCCCCC)OC(=O)CCCCCCCN(CCO)CCCCCC [Compound 5]', 'IL-6, IP-10', 1),
  ('CCCCCCCCCCCOC(=O)CCCCCN(CCO)CCCCCC(=O)OCCCCCCCCCCC [Compound 141]', 'IL-6, IP-10', 1),
  ('CCCCCCCCCOC(=O)CCCCCCCN(CCCCCCCC(=O)OC(CCCCCCCC)CCCCCCCC)C[C@H](C)O [Compound 12]', 'IL-6, IP-10', -1),
  ('CCCCCCCCCOC(=O)CCCCCCCN(CCCCCCCC(=O)OC(CCCCCCCC)CCCCCCCC)CC(C)O (centres unmarked) [Compound 10]', 'IL-6, IP-10', -1),
  ('CCCCCCCCC(CCCCCCCC)OC(=O)CCCCCCCN(CCO)CCCCCCCC [Compound 4]', 'IL-6, IP-10', 1),
  ('CCCCCC=CCC=CCCCCCCCCC(CCCCCCCCC=CCC=CCCCCC)OC(=O)CCCN(C)C (centres unmarked) [MC3, reference compound]', 'IL-6, IP-10', 1),
  ('CCCCCCCCCOC(=O)CCCCCCCN(CCO)CCCCCCCOC(=O)C(CCCCCCCC)CCCCCCCC [Compound 30]', 'IL-6, IP-10', 1),
  ('CCCCCC/C=C\COC(=O)CCCCCCCN(CCO)CCCCCCCC(=O)OC(CCCCCCCC)CCCCCCCC [Compound 24]', 'IL-6, IP-10', 1),
  ('CCCCCCCCC(CCCCCCCC)OC(=O)CCCCCCCN(CCO)CCCCCCCC(=O)OCC1CC1CCCCCC (centres unmarked) [Compound 28]', 'IL-6, IP-10', -1),
  ('CCCCCCCCCOC(=O)CCCCCCCN(CCCCCCCC(=O)OC(CCCCCCCC)CCCCCCCC)CCCOC [Compound 16]', 'IL-6, IP-10', -1),
  ('CCCCCC/C=C\COC(=O)CCCCCCCN(CCO)CCCCCCCC(=O)OC/C=C\CCCCCC [Compound 139]', 'IL-6, IP-10', -1),
  ('CCCCCCCCCOC(=O)CCCCCCCN(CCCCCCCC(=O)OC(CCCCCCCC)CCCCCCCC)C1CCCCC1O (centres unmarked) [Compound 22]', 'IL-6, IP-10', 1),
  ('CCCCCCCCCOC(=O)CCCN(CCO)CCCCCCCC(=O)OC(CCCCCCCC)CCCCCCCC [Compound 26]', 'IL-6, IP-10', 1),
  ('CCCCCCCCCOC(=O)CCCCCCCN(CCCCO)CCCCCCCC(=O)OC(CCCCCCCC)CCCCCCCC [Compound 20]', 'IL-6, IP-10', 1),
  ('CCCCCCCCCCCOC(=O)CCCCCN(CCO)CCCCCCCC(=O)OC(CCCCCCCC)CCCCCCCC [Compound 25]', 'IL-6, IP-10', 1),
  ('CCCCCCCCCOC(=O)CCCCCCCN(CCCCCCCC(=O)OC(CCCCCCCC)CCCCCCCC)CCN(C)C [Compound 14]', 'IL-6, IP-10', 1),
  ('CCCCCCCCCN(CCO)CCCCCCCC(=O)OC(CCCCCCCC)CCCCCCCC [Compound 3]', 'IL-6, IP-10', 1);

* * *

Test system: luciferase (Luc) mRNA
assay name: Luciferase expression (whole body bioluminescence) after intravenous administration to mice
Assay type: in vivo
test settings: i.v. administration (Table 3C)
Each entry below carries its recorded AUC.
readout: AUC (h*p/s)

INSERT INTO results (compound, measurement) VALUES
  ('CCCCCCCCC(CCCCCCCC)OC(=O)CCCCCCCN(CCO)CCCCCCCC(=O)OC1CCC(CCCCC)CC1 (stereo not shown)', '6.76E+11'),
  ('CCCCCCCCOP(=O)(OCCCCCCCC)OCCCCCCCN(CCO)CCCCCCCC(=O)OC(C)CCCCCCCC (stereo not shown)', '1.75E+10'),
  ('CCCCCCCCCOC(=O)CCCCCCCN(CCO)CCCCCCCOP(=O)(OCCCCCCCC)OCCCCCCCC', '9.29E+10'),
  ('CCCCCCCCC(CCCCCCCC)OC(=O)CCCCCCCN(CCO)CCCCCC(=O)N(C)CCCCCCCC', '1.04E+09'),
  ('CCCCCCCCC(C)OC(=O)CCCCCCCN(CCO)CCCCCCCOC(=O)C(CCCCCCCC)CCCCCCCC (stereo not shown)', '1.25E+12'),
  ('CCCCCC=CCC=CCCCCCCCCC(CCCCCCCCC=CCC=CCCCCC)OC(=O)CCCN(C)C (stereo not shown) [MC3, reference compound]', '8.24E+10'),
  ('CCCCCCCCC(CCCCCC)C(=O)OCCCCCCCCCN(CCO)CCCCCCCCCOC(=O)C(CCCCCC)CCCCCCCC (stereo not shown)', '3.62E+11');
